These measurements were taken from paper PMC12102759.

B1: ATXN2 peptide 913-928 (Ataxin-2), 16-mer library wild type / PABPC1 PABC (PABPC1 PABC domain, residues 544-623) (parent)
chain 1: TLNPNAKEFNPRSFSQ
chain 2: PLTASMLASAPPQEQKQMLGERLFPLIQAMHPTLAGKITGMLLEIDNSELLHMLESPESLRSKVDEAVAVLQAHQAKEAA

Variants of: B1
Experiment: proteomic peptide phage display deep mutational scan (ProP-PD DMS): M13 P8 16-mer library selected against immobilised GST-tagged bait for four days (rounds), NGS of the eluted pools per day and pseudo-replica
Details: with PABPC1 PABC (PABPC1 PABC domain, residues 544-623); bait immobilised on MaxiSorp plates (10 µg), library pre-cleared on GST, 2 h binding at 4 °C, five washes; one round per day, days 1-4; value from days 2 and 3; scale: average fractional NGS count over selection days 2 and 3
The following variants are listed with their measured screen value values.
// return a plain number; no unit text

Examples from the recorded data:
mutant_label: chain 1 F9G
screen value: 0
//
mutant_label: chain 1 N3T
screen value: 8.32e-05
//
mutant_label: chain 1 P4Y
screen value: 0
//
mutant_label: chain 1 N3A
screen value: 0
//
mutant_label: chain 1 T1Q
screen value: 0.000237
//
mutant_label: chain 1 F14D
screen value: 0.000335

Task: Can you share its screen value? I mean this variant: chain 1 P4S
Result: 0.000147

Task: Can you share its screen value? I mean this variant: chain 1 S13V
Result: 0.000423

Task: Can you share its screen value? I mean this variant: chain 1 A6I
Result: 0.000105

Task: Can you share its screen value? I mean this variant: chain 1 T1W
Result: 4.71e-05

Task: Can you share its screen value? I mean this variant: chain 1 F9A
Result: 0

Task: Can you share its screen value? I mean this variant: chain 1 S15L
Result: 6.16e-05

Task: Can you share its screen value? I mean this variant: chain 1 S15N
Result: 0.000264

Task: Can you share its screen value? I mean this variant: chain 1 N10V
Result: 1.03e-05

Task: Can you share its screen value? I mean this variant: chain 1 S13K
Result: 0.000149

Task: Can you share its screen value? I mean this variant: chain 1 S15Y
Result: 0.000175
